Origin of values: patent US20240368122A1

- System: TF1 JAK2 V617F STAT5 reporter
- Experiment notes: Cellular TF1 STAT5 assay (luciferase reporter), JAK2 V617F
- Format: cell-based
- Experimental conditions: TF1 JAK2 V617F, read-out: Cell PD TF1 V617F STAT5 (IC50)
pIC50: −log10 of the molar value.
Metric: pIC50

Guide cases for pIC50, answers given:
1. CNC(=O)c1nnc(NC(=O)C2CC2)cc1Nc1cccc(-c2cn(C3CN(Cc4ccccn4)C3)nc2C)c1OC    5.30 to 6.30
2. CNC(=O)c1nnc(NC(=O)C2CC2)cc1Nc1cccc(-c2cnn(C3CN(Cc4cccc(C#N)n4)C3)c2)c1OC    6.30 to 7.30
3. CNC(=O)c1nnc(NC(=O)C2CC2)cc1Nc1cccc(-c2ccc(C(=O)N(C)Cc3ccc(C)cn3)nc2)c1OC    5.30 to 6.30
4. CNC(=O)c1nnc(NC(=O)C2CC2)cc1Nc1cccc(-c2ccc(C(=O)N(C)Cc3nccs3)nc2)c1OC    5.30 to 6.30
5. CNC(=O)c1nnc(NC(=O)C2CC2)cc1Nc1cccc(-c2cnn(C3CN(Cc4cccc(F)c4)C3)c2)c1OC    5.30 to 6.30

Input: Identify the reported pIC50 for the following entry. CNC(=O)c1nnc(NC(=O)C2CC2)cc1Nc1cccc(-c2ccc(C(=O)N(C)Cc3ncc(C#N)s3)nc2)c1OC
Output: 4.00 to 5.30

Input: Identify the reported pIC50 for the following entry. CNC(=O)c1nnc(NC(=O)C2CC2)cc1Nc1cccc(-c2cnn(C3CN(Cc4csnn4)C3)c2)c1OC
Output: 6.30 to 7.30

Input: Identify the reported pIC50 for the following entry. CNC(=O)c1nnc(NC(=O)C2CC2)cc1Nc1cccc(-c2ccc(C(=O)N(Cc3cc(C#N)ccn3)OC)nc2)c1OC
Output: 6.30 to 7.30

====

- Tested target: JAK2 JH2 WT (V536-D812) [W659A, W777A, F794H solubilizing mutations] (Homo sapiens, UniProt O60674, F794H/W659A/W777A)
- Construct: **JAK2 JH2 WT (V536-D812) [W659A, W777A, F794H solubilizing mutations]; C-thrombin-avi-His6; thrombin cleavage site (C); His6 (C); purchased Biortus
- Sequence (O60674 536-812 W659A/W777A/F794H): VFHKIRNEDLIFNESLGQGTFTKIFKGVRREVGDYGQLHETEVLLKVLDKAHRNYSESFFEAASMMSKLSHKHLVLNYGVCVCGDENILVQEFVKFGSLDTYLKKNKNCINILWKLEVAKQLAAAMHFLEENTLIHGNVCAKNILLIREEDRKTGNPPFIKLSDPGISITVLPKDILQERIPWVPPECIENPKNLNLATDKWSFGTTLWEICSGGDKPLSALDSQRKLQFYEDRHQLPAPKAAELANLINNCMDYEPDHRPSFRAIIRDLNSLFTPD
- Experiment notes: Surface Plasmon Resonance (SPR) binding assay, JAK2 JH2 domain
Metric: Kd

Guide cases for Kd, answers given:
1) CNC(=O)c1nnc(NC(=O)C2CC2)cc1Nc1cccc(-c2cnn(C3CN(Cc4cccc(N)n4)C3)c2)c1OC    0.01 to 10 nM
2) CNC(=O)c1nnc(NC(=O)C2CC2)cc1Nc1ccc(C)c(-c2cnc(C(=O)N(C)Cc3ncc(COC)s3)c(F)c2)c1OC    0.01 to 10 nM

Input: Identify the reported Kd for the following entry. CNC(=O)c1nnc(NC(=O)C2CC2)cc1Nc1cccc(-c2ccc(C3CN(Cc4ccc5c(n4)CCC5)C3)nc2)c1OC
Output: 50 to 500 nM

Input: Identify the reported Kd for the following entry. CNC(=O)c1nnc(NC(=O)C2CC2)cc1Nc1cccc(-c2cnn(C3CN(Cc4cc(C(F)F)cc(C#N)n4)C3)c2)c1OC
Output: 0.01 to 10 nM

====

- Tested on: TF1 JAK2 V617F STAT5 reporter
- Experiment notes: Cellular TF1 STAT5 assay (luciferase reporter), JAK2 V617F
- Type: cell-based
- Experimental conditions: TF1 JAK2 V617F, read-out: Cell PD TF1 V617F STAT5 (IC50)
Readings of IC50 for the listed molecules

Guide cases for IC50, answers given:
1. CNC(=O)c1nnc(NC(=O)C2CC2)cc1Nc1cccc(-c2cnc(C(=O)NCc3cccn(C)c3=O)nc2)c1OC    5000 to 100000 nM
2. CNC(=O)c1nnc(NC(=O)C2CC2)cc1Nc1cccc(-c2ccc(C(=O)N(C)Cc3cn(C)nc3C(F)(F)F)nc2)c1OC    50 to 500 nM
3. CNC(=O)c1nnc(NC(=O)C2CC2)cc1Nc1cccc(-c2cnc(C(=O)N(C)Cc3cccn(C)c3=O)c(F)c2)c1OC    50 to 500 nM
4. CNC(=O)c1nnc(NC(=O)C2CC2)cc1Nc1cccc(-c2cnn(C3CN(Cc4nccc(OC)n4)C3)c2)c1OC    500 to 5000 nM
5. CNC(=O)c1nnc(NC(=O)C2CC2)cc1Nc1cccc(-c2ccc(C(=O)N(C)C(C)c3nc(C)no3)nc2)c1OC (stereo not shown)    5000 to 100000 nM

Input: Identify the reported IC50 for the following entry. CNC(=O)c1nnc(NC(=O)C2CC2)cc1Nc1cccc(-c2ccc(C(=O)N(C)Cc3cc(C#N)ccn3)nc2OC)c1OC
Output: 500 to 5000 nM

Input: Identify the reported IC50 for the following entry. CNC(=O)c1nnc(NC(=O)C2CC2)cc1Nc1cccc(-c2cnn(C3CN(Cc4ncccc4F)C3)c2)c1OC
Output: 500 to 5000 nM

====

- Tested target: JAK2 JH2 WT (V536-D812) [W659A, W777A, F794H solubilizing mutations] (Homo sapiens, UniProt O60674, F794H/W659A/W777A)
- Construct: **JAK2 JH2 WT (V536-D812) [W659A, W777A, F794H solubilizing mutations]; C-thrombin-avi-His6; thrombin cleavage site (C); His6 (C); purchased Biortus
- Experiment notes: Surface Plasmon Resonance (SPR) binding assay, JAK2 JH2 domain
- Description: Selected compounds of the present disclosure were tested in a Surface Plasmon Resonance (SPR) Assay to measure their binding kinetics and affinity for proteins of interest. Prepare buffer: 50 mM HEPES pH 7.5, 150 mM NaCl, 0.05% (v/v) Tween, and 10% (v/v) glycerol were combined and pH was adjusted to 7.5, then filtered. 5 mM DTT, was added, and buffer without DMSO was reserved for compound resuspension. […]
Metric: Kd

1) CNC(=O)c1nnc(NC(=O)C2CC2)cc1Nc1cccc(-c2cnn(C3CN(Cc4cccc(C#N)n4)C3)c2)c1    10 to 50 nM
2) CNC(=O)c1nnc(NC(=O)C2CC2)cc1Nc1cccc(-c2cnn(C3CN(Cc4cccc5nncn45)C3)c2)c1OC    10 to 50 nM
3) CNC(=O)c1nnc(NC(=O)C2CC2)cc1Nc1ccc(Cl)c(-c2ccc(C(=O)N(C)Cc3cc(C#N)n(C)n3)nc2)c1OC    0.01 to 10 nM
4) CNC(=O)c1nnc(NC(=O)C2CC2)cc1Nc1ccc(C)c(-c2ccc(C(=O)N(C)Cc3ncc(COC)s3)nc2)c1OC    0.01 to 10 nM
5) COc1c(Nc2cc(NC(=O)C3CC3)nnc2-c2ncc[nH]2)ccc(C)c1-c1ccc(C(=O)N(C)Cc2cn(C)nc2C)nc1    0.01 to 10 nM

Field: next molecule
Input: Identify the reported Kd for the following entry. CNC(=O)c1nnc(NC(=O)C2CC2)cc1Nc1cccc(-c2ccc(C(=O)N(C)C[C@@H]3CCCC3(F)F)nc2)c1OC (single isomer, unassigned)
Output: 10 to 50 nM

====

Readings of pKd for the listed molecules
- Tested target: JAK2 JH1 WT (T842-G1132) (Homo sapiens)
- Construct: *JAK2 JH1 WT (T842-G1132) N-His60-avi-TEV; His6 (N); TEV cleavage site (N); purchased Biortus
- Sequence (O60674 842-1132): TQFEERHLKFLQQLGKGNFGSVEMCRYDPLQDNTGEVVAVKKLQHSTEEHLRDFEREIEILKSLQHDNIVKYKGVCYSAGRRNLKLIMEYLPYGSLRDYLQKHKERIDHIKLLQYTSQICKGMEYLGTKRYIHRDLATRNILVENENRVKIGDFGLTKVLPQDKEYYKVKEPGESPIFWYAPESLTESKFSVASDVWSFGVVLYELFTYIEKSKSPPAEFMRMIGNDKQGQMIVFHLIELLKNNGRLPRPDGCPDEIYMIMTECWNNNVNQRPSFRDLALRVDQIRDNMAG
- Experiment notes: Surface Plasmon Resonance (SPR) binding assay, JAK2 JH1 domain
- Experimental conditions: SPR, JAK2 JH1 domain
pKd: −log10 of the molar value.

1) CNC(=O)c1nnc(NC(=O)C2CC2)cc1Nc1cccc(-c2ccc(C(=O)NCc3cccn(C)c3=O)cc2)c1OC    5.30 to 6.30
2) CNC(=O)c1nnc(NC(=O)C2CC2)cc1Nc1cccc(-c2cn(C3CN(Cc4ccccn4)C3)nn2)c1OC    4.00 to 5.30
3) CNC(=O)c1nnc(NC(=O)C2CC2)cc1Nc1cccc(-c2cnn(C3CN(Cc4ccn(C)n4)C3)c2)c1OC    5.30 to 6.30
4) CNC(=O)c1nnc(NC(=O)C2CC2)cc1Nc1cccc(-c2cnc(C(=O)N(C)Cc3cc(C#N)ccn3)nc2)c1OC    4.00 to 5.30
5) CNC(=O)c1nnc(NC(=O)C2CC2)cc1Nc1cccc(-c2cnc(C(=O)N(C)Cc3cc(C#N)ccn3)cn2)c1OC    4.00 to 5.30

Input: Would you please give the reported pKd of CNC(=O)c1nnc(NC(=O)C2CC2)cc1Nc1cccc(-c2ccc(C(=O)N(C)Cc3cccnc3)nc2)c1OC with JAK2 JH1 WT (T842-G1132) (Homo sapiens)?
Output: 4.00 to 5.30

Input: Would you please give the reported pKd of CNC(=O)c1nnc(NC(=O)C2CC2)cc1Nc1cccc(-c2ccc(C(=O)N(C)Cc3cc(C#N)ccn3)nc2)c1OC with JAK2 JH1 WT (T842-G1132) (Homo sapiens)?
Output: 4.00 to 5.30

Input: Would you please give the reported pKd of CNC(=O)c1nnc(NC(=O)C2CC2)cc1Nc1cccc(-c2ccc(C(=O)N(C)Cc3cc(C#N)ccn3)cc2)c1OC with JAK2 JH1 WT (T842-G1132) (Homo sapiens)?
Output: 4.00 to 5.30

Input: Would you please give the reported pKd of CNC(=O)c1nnc(NC(=O)C2CC2)cc1Nc1cccc(-c2cn(C3CN(Cc4cccc(C)n4)C3)nn2)c1OC with JAK2 JH1 WT (T842-G1132) (Homo sapiens)?
Output: 5.30 to 6.30

Input: Would you please give the reported pKd of CNC(=O)c1nnc(NC(=O)C2CC2)cc1Nc1cccc(-c2cnn(C3CN(Cc4cccc(Cl)n4)C3)c2)c1OC with JAK2 JH1 WT (T842-G1132) (Homo sapiens)?
Output: 4.00 to 5.30

Input: Would you please give the reported pKd of CNC(=O)c1nnc(NC(=O)C2CC2)cc1Nc1cccc(-c2cnn(C3CN(Cc4cccc(C#N)n4)C3)c2)c1OC with JAK2 JH1 WT (T842-G1132) (Homo sapiens)?
Output: 5.30 to 6.30

Input: Would you please give the reported pKd of CNC(=O)c1nnc(NC(=O)C2CC2)cc1Nc1cccc(-c2cnc(C(=O)NCc3cccn(C)c3=O)nc2)c1OC with JAK2 JH1 WT (T842-G1132) (Homo sapiens)?
Output: 5.30 to 6.30
